- Target or system: hCA XIII (Homo sapiens, UniProt Q8N1Q1)
- Sequence (Q8N1Q1 whole entry): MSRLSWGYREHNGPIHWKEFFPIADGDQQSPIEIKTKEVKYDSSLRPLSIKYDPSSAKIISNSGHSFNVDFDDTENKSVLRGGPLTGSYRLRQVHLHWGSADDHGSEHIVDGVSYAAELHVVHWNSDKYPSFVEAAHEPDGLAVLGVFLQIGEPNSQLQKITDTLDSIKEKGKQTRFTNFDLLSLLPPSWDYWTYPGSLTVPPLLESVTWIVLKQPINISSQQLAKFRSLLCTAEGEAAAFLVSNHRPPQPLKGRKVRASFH
- Assay notes: CA catalyzed CO2 hydration, stopped flow assay, hCA XIII
- Measurement conditions: Ki (nM) hCA XIII, recombinant enzyme; stopped flow technique; mean from 3 different assays, errors ±5–10%
Assay endpoint: Ki (nM)
Only the number, expressed in nM, is required.

Some solved cases for reference:
INSERT INTO results (smiles_structure, result_unit, observed_value) VALUES
  ('O=c1ccc2cc(-n3cc(CNc4ccccc4)nn3)ccc2o1', 'nM', 90.1),
  ('O=c1ccc2cc(-n3cc(CNc4ccc(Cl)cc4[N+](=O)[O-])nn3)ccc2o1', 'nM', 96.7),
  ('O=c1ccc2cc(-n3cc(CNc4cc(F)cc(F)c4)nn3)ccc2o1', 'nM', 664),
  ('Cc1cccc(NCc2cn(-c3ccc4oc(=O)ccc4c3)nn2)c1', 'nM', 795),
  ('Cc1cc(C)cc(NCc2cn(-c3ccc4oc(=O)ccc4c3)nn2)c1', 'nM', 703);

Just so you know, measured Ki for O=c1ccc2cc(-n3cc(CNc4cccc(C(F)(F)F)c4)nn3)ccc2o1 came out at 6430

Just so you know, measured Ki for O=c1ccc2cc(-n3cc(CNc4cccc(Br)c4)nn3)ccc2o1 came out at 91.8

Just so you know, measured Ki for Cc1ccc(NCc2cn(-c3ccc4oc(=O)ccc4c3)nn2)cc1 came out at 92.6

Just so you know, measured Ki for O=c1ccc2cc(-n3cc(CNc4ccc(Cl)cc4)nn3)ccc2o1 came out at 898

====

- Target or system: hCA IX (Homo sapiens)
- Assay notes: CA catalyzed CO2 hydration, stopped flow assay, hCA IX
- Measurement conditions: Ki (nM) hCA IX, recombinant enzyme; stopped flow technique; mean from 3 different assays, errors ±5–10%
Listed next: entries and their corresponding Ki.

Some solved cases for reference:
INSERT INTO results (compound, target_or_system, observed_value) VALUES
  ('O=c1ccc2cc(-n3cc(CNc4ccc(Cl)cc4[N+](=O)[O-])nn3)ccc2o1 [Compound 6q]', 'hCA IX (Homo sapiens)', '96.4 nM'),
  ('O=c1ccc2cc(-n3cc(CNc4cccc(Br)c4)nn3)ccc2o1 [Compound 6j]', 'hCA IX (Homo sapiens)', '305 nM'),
  ('Cc1cc(C)cc(NCc2cn(-c3ccc4oc(=O)ccc4c3)nn2)c1 [Compound 6n]', 'hCA IX (Homo sapiens)', '89.3 nM'),
  ('CC(C)c1ccc(NCc2cn(-c3ccc4oc(=O)ccc4c3)nn2)cc1 [Compound 6f]', 'hCA IX (Homo sapiens)', '45 nM'),
  ('O=c1ccc2cc(-n3cc(CNc4ccc(Oc5ccccc5)cc4)nn3)ccc2o1 [Compound 6h]', 'hCA IX (Homo sapiens)', '73 nM');

# next compound below
Just so you know, measured Ki for Cc1cc(C)c(NCc2cn(-c3ccc4oc(=O)ccc4c3)nn2)c(C)c1 [Compound 6g] came out at 64.8 nM

====

- Target or system: hCA IX (Homo sapiens, UniProt Q16790)
- Assay notes: CA catalyzed CO2 hydration, stopped flow assay, hCA IX
- Measurement conditions: read-out: Ki (nM) hCA IX; recombinant enzyme; stopped flow technique; mean from 3 different assays, errors ±5–10%
Assay endpoint: Ki (nM)
Only the number, expressed in nM, is required.

Just so you know, measured Ki for O=c1ccc2cc(-n3cc(CNc4ccc(Br)cc4)nn3)ccc2o1 came out at 36.3

====

Listed next: entries and their corresponding Ki.
- Target or system: hCA IX (Homo sapiens)
- Assay notes: CA catalyzed CO2 hydration, stopped flow assay, hCA IX
- Measurement conditions: Ki (nM) hCA IX, recombinant enzyme; stopped flow technique; mean from 3 different assays, errors ±5–10%

Some solved cases for reference:
INSERT INTO measurements (smiles_structure, observed_value) VALUES
  ('O=c1ccc2cc(-n3cc(CNc4cccc(C(F)(F)F)c4)nn3)ccc2o1', '69.1 nM'),
  ('Cc1cccc(NCc2cn(-c3ccc4oc(=O)ccc4c3)nn2)c1C', '462 nM'),
  ('O=c1ccc2cc(-n3cc(CNc4cccc([N+](=O)[O-])c4)nn3)ccc2o1', '85.7 nM'),
  ('O=c1ccc2cc(-n3cc(CNc4ccccc4I)nn3)ccc2o1', '574 nM');

# next molecule below
Just so you know, measured Ki for O=c1ccc2cc(-n3cc(CNc4ccc(Br)cc4)nn3)ccc2o1 came out at < 50 nM
